Each recorded value in this set is attributed to paper PMC6995600.

target: α-Glucosidase (from baker’s yeast) (Saccharomyces cerevisiae, UniProt P53341); construct: purchased Sigma-Aldrich #63231-63-0; test: biochemical; conditions: IC50, Substrate PNPG 0.125 mM
Sequence (P53341 whole entry): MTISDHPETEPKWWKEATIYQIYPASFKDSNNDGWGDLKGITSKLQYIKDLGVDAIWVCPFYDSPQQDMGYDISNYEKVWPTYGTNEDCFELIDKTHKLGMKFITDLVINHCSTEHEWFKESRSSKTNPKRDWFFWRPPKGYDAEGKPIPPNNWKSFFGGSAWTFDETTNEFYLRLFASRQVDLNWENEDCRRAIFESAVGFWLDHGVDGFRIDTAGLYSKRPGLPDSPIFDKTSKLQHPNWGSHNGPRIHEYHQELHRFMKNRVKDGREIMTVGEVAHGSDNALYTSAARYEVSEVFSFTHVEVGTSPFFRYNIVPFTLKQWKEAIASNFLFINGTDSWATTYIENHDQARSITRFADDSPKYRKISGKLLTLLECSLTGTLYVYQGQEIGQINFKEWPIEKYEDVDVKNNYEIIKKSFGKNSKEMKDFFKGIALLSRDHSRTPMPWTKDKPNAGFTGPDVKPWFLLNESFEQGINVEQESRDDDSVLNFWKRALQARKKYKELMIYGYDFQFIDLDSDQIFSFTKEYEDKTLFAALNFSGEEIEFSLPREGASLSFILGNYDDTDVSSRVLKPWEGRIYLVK
recorded-endpoint: IC50 (µM)

> print(dat)
                         smiles.repr  observed
1  O=c1c(-c2ccc(O)cc2)coc2cc(O)ccc12      59.2

====

target: α-Glucosidase (from baker’s yeast) (Saccharomyces cerevisiae); construct: purchased Sigma-Aldrich #63231-63-0; experiment: Enzyme kinetics for α-glucosidase (Michaelis–Menten, Lineweaver–Burk, Dixon plot); format: biochemical; conditions: Lineweaver–Burk plots

compound	Mode of Inhibition
CC1(C)C=Cc2c(ccc3c2OC[C@@]2(O)c4ccc(O)cc4O[C@@H]32)O1	Competitive
C[C@H]1O[C@H](O[C@H]2[C@H](O)[C@@H](O)[C@@H](O[C@H]3[C@H](O)[C@@H](O)C(O)O[C@@H]3CO)O[C@@H]2CO)[C@H](O)[C@@H](O)[C@@H]1N[C@H]1C=C(CO)[C@@H](O)[C@H](O)[C@H]1O (stereo partly shown) [Acarbose, acarbose, reference compound]	Competitive
O=c1cc(-c2ccc(O)c(O)c2)oc2cc(O)cc(O)c12	Mixed
